Provide the recorded pIC50 for the entries that follow.
System: BT16 cells (AT/RT)
Test: BT16 cell viability assay
Assay type: cell-based
Details: Homo sapiens, BT-16, 72 h, read-out: BT16 viability, IC50
pIC50 here: minus log base 10 of the concentration, concentration in moles per litre.

The recorded pIC50 for entry O=C(NCc1ccccc1)c1cc2c(F)cc(F)cc2[nH]1 [Compound 9a] equals 5.74

The recorded pIC50 for entry O=C(c1cc2c(F)cc(F)cc2[nH]1)N1CCN(C(=O)C23CC4CC(CC(C4)C2)C3)CC1 [Compound 15] equals 5.23

----------
Tested on: HFF1 non-neoplastic human fibroblasts
Assay: HFF1 cell proliferation assay
Format: cell-based
Details: HFF-1, 72 h, read-out: HFF1 prolif., IC50
MEASURE: IC50

The recorded IC50 for entry "O=C(NCc1ccccc1)c1cc2c(F)cc(F)cc2[nH]1" equals 65 µM

The recorded IC50 for entry "O=C(c1cc2c(F)cc(F)cc2[nH]1)N1CCN(C(=O)C23CC4CC(CC(C4)C2)C3)CC1" equals 17.4 µM

----------
Provide the recorded pIC50 for the entries that follow.
Tested on: DAOY cells (medulloblastoma)
Assay: DAOY cell viability assay
Assay type: cell-based
Details: Homo sapiens, 72 h, read-out: DAOY viability, IC50
pIC50: −log10 of the molar value.

Tested on DAOY cells (medulloblastoma), the item "O=C(NCc1ccccc1)c1cc2c(F)cc(F)cc2[nH]1" showed pIC50 equal to < 5.00

Tested on DAOY cells (medulloblastoma), the item "O=C(c1cc2c(F)cc(F)cc2[nH]1)N1CCN(C(=O)C23CC4CC(CC(C4)C2)C3)CC1" showed pIC50 equal to < 5.00

----------
Test system: M. tb H37Rv strain
Experiment: Anti-TB activity, microplate alamarBlue assay
Assay type: cell-based, Mycobacterium tuberculosis
Details: Mycobacterium tuberculosis, H37RV, read-out: H37Rv, MIC, MABA; H37Rv MIC values converted to μM
MEASURE: MIC (µM)
Entry rule: numbers only, all in µM.

The recorded MIC for entry Cc1ccc2[nH]c(C(=O)NC(C)C34CC5CC(CC(C5)C3)C4)cc2c1 (stereo not shown) equals 2.97

The recorded MIC for entry CC(NC(=O)c1cc2ccccc2[nH]1)C12CC3CC(CC(C3)C1)C2 (stereo not shown) equals 6.2

The recorded MIC for entry CC(NC(=O)c1cc2ccc(Br)cc2[nH]1)C12CC3CC(CC(C3)C1)C2 (stereo not shown) equals 0.62

The recorded MIC for entry CC(NC(=O)c1cc2c(Cl)cc(Cl)cc2[nH]1)C12CC3CC(CC(C3)C1)C2 (stereo not shown) equals 0.32

----------
Tested on: M. tb H37Rv strain
Assay: Anti-TB activity, microplate alamarBlue assay
Assay type: cell-based, Mycobacterium tuberculosis
Settings: Mycobacterium tuberculosis, H37RV, read-out: H37Rv, MIC, MABA; H37Rv MIC values converted to μM
MEASURE: MIC

The recorded MIC for entry "O=C(NCc1ccccc1)c1cc2c(F)cc(F)cc2[nH]1" equals > 112 µM

The recorded MIC for entry "O=C(NNc1ccccc1)c1cc2c(F)cc(F)cc2[nH]1" equals > 96 µM

The recorded MIC for entry "O=C(NC12CC3CC(CC(C3)C1)C2)c1ccc(NC(=O)c2cc3c(F)cc(F)cc3[nH]2)cc1" equals > 71 µM

The recorded MIC for entry COc1ccc2[nH]c(C(=O)NC(C)C34CC5CC(CC(C5)C3)C4)cc2c1 (stereo not drawn) equals < 6 µM

The recorded MIC for entry "O=C(c1cc2c(F)cc(F)cc2[nH]1)N1CCNCC1" equals > 121 µM

The recorded MIC for entry O=C(NC(=O)c1cc2c(F)cc(F)cc2[nH]1)c1cccc(F)c1 [Compound 11a] equals > 96 µM
